biological target: AAV9 capsid (adeno-associated virus serotype 9 (AAV9), UniProt Q6JC40); assay: far-Western, overlay or dot blot
Recorded metric: binding result

* mAb3-2 (antibody, V domains shown) VH: EVQLLESGGGLVQPGGSLRLSCAASGFTFSNYAMSWVRQAPGKGLEWVSLISGSGGSIDYADSVKGRFTISRDNSKNTLYLQMDSLRAEDTAVYYCSKDPIYYDLSGYYAGRIYYFDYWGQGTLVTVSS VL: EIVMTQSPATLSVSPGDTATLSCRASHSVSRDLAWYQQKPGQAPRLLIYDASTRATGIPARFSGSGSGTEFTLTISSLQSEDFAVYYCQQYINWVTFGPGTKVDIE | binds
* mAb2-2 (antibody, V domains shown) VH: QVQLQESGPGLVKPSVTLSLTCTVSGDSISTYYWSWVRQPPGKGLEWIGYIYYSGNTNYNPSLKSRVTMSVDTSKNQFSLKLNSVTAADTAVYYCARTHHDYGDYRPSYYFDYWGQGTLVTVSS VL: QSALTQPASVSGSPGQSITISCTGTSSDVGAYDYVSWYQQHPGKAPKLMIYDVSNRPSSGVSNRFSGSKSGNTASLTISGLQAEDEADYYCSSYTSSSTVILGGGTKLTVL | binds
* mAb1-5 (antibody, V domains shown) VH: EVQLVESGGGLVKPGGSLRLSCAASGFMFSSYSMNWVRQAPGKGLEWVSSISRSDSYIDYADSVKGRFTISRDTAMNVLYLQMDSLRAEDTGVYYCARTHVFNMFREVINDDYYGMDVWGQGTTVTVS VL: ALTQPASVSGSPGQSITISCTGTSSDFGIYNSVSWYQHHPGKAPKLMIFGVSNRPSGVSNRFSGSKSGNTASLSISGLQAEDEADYYCSSFTARSTVVFGGGTKLTVL | binds

These measurements were taken from paper doi:10.1101/2024.05.01.590489.
